target: D(3) dopamine receptor (Homo sapiens); experiment: DRUGMATRIX: Dopamine D3 radioligand binding (ligand: [3H] Spiperone); type: cell membranes, CHO, Membrane; conditions: read-out: IC50
Sequence (P35462 whole entry): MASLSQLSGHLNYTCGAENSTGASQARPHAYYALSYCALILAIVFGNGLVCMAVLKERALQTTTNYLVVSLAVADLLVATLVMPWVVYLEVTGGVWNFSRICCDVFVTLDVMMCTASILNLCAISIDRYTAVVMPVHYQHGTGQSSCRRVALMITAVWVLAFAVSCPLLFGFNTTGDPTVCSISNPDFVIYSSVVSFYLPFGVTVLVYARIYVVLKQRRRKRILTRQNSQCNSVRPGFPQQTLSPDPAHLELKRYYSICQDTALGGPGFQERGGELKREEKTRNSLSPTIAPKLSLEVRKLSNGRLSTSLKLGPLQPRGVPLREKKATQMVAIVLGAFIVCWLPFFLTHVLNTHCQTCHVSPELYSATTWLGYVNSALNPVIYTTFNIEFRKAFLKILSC
The following molecules are listed with their measured pIC50 values.
Reminder that pIC50 means the negative base-10 logarithm of the concentration expressed in mol/L.

[
  {
    "molecule": "CN(C)c1ccc(C(=C2C=CC(=[N+](C)C)C=C2)c2ccc(N(C)C)cc2)cc1.[Cl-]",
    "measurement-kind": "pIC50",
    "observed-result": 6.08
  }
]

For the molecule COCCCOc1ccnc(C[S+]([O-])c2nc3ccccc3[nH]2)c1C (stereo not drawn) , report pIC50.
5.63

For the molecule O=C1CC2(CCCC2)CC(=O)N1CCCCN1CCN(c2ncccn2)CC1 , report pIC50.
7.36

###

molecular target: UniProt P03956; assay: biochemical; type: tissue-based, Rheumatoid synovial fibroblasts
Sequence (P03956 whole entry): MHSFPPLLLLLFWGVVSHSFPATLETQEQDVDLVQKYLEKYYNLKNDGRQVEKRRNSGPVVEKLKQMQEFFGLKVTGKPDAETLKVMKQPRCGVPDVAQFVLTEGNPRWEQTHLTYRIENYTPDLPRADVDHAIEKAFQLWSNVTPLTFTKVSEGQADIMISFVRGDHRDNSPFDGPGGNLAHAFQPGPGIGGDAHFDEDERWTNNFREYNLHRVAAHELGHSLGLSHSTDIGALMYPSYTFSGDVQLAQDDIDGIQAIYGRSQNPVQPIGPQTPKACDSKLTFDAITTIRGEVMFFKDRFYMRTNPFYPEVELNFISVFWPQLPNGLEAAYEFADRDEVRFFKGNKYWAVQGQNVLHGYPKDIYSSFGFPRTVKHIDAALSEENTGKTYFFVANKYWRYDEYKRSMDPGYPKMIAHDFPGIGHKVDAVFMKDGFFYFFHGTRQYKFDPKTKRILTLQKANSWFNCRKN

[
  {
    "mol-smiles": "N=C(Nc1ccccc1)Nc1ccccc1",
    "IC50": "Not Active"
  },
  {
    "mol-smiles": "O=S(=O)([O-])CCS.[Na+]",
    "IC50": "Not Active"
  },
  {
    "mol-smiles": "CC(=O)N[C@@H]1[C@H](Oc2c3cc4cc2Oc2ccc(cc2Cl)[C@@H](O[C@@H]2O[C@@H](CO)[C@@H](O)[C@H](O)[C@@H]2NC(C)=O)[C@@H]2NC(=O)[C@H](NC(=O)[C@@H]4NC(=O)[C@H]4NC(=O)[C@@H](Cc5ccc(c(Cl)c5)O3)NC(=O)[C@H](N)c3ccc(O)c(c3)Oc3cc(O)cc4c3)c3ccc(O)c(c3)-c3c(O[C@H]4O[C@H](CO)[C@@H](O)[C@@H](O)[C@@H]4O)cc(O)cc3[C@@H](C(=O)O)NC2=O)O[C@@H](CO)[C@@H](O)[C@@H]1O",
    "IC50": "Not Active"
  }
]

###

target: 5-hydroxytryptamine receptor 1B (Rattus norvegicus); type: cell membranes, Wistar, Cerebral cortex, Membrane; note: in other assays of this panel Not Active means under 50% inhibition at 10 µM
Sequence (P28564 whole entry): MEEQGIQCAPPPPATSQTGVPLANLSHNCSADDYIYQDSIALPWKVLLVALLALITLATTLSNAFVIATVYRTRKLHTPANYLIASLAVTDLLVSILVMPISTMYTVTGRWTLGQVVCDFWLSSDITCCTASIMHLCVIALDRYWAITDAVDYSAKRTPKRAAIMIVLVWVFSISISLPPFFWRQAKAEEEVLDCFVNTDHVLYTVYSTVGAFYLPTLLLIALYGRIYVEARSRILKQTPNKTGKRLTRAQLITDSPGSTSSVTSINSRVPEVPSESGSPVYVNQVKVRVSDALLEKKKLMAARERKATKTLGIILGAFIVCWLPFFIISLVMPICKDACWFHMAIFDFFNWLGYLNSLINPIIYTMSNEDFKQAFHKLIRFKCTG
measurement-kind: IC50

[
  {
    "molecule": "CCCN(CCC)C(=O)C(CCC(=O)O)NC(=O)c1ccccc1 (stereo not drawn) [PROGLUMIDE]",
    "target-desc": "5-hydroxytryptamine receptor 1B (Rattus norvegicus)",
    "observed-result": "Not Active"
  },
  {
    "molecule": "ClC(Cl)Cl [CHLOROFORM]",
    "target-desc": "5-hydroxytryptamine receptor 1B (Rattus norvegicus)",
    "observed-result": "Not Active"
  },
  {
    "molecule": "C#C[C@]1(O)CC[C@H]2[C@@H]3CCc4cc(OC)ccc4[C@H]3CC[C@@]21C [MESTRANOL]",
    "target-desc": "5-hydroxytryptamine receptor 1B (Rattus norvegicus)",
    "observed-result": "Not Active"
  }
]

###

target: UniProt P41968; assay type: cell membranes, Membrane; conditions: hek293
Sequence (P41968 whole entry): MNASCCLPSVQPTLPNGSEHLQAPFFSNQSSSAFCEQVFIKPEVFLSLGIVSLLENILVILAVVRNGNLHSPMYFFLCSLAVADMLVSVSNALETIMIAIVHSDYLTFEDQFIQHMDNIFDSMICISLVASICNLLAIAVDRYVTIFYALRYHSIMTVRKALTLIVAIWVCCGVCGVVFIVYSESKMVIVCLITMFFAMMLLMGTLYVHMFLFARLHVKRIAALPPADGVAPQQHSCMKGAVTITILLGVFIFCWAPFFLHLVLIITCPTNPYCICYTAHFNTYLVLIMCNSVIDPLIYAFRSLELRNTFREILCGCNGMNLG
Where a SMILES comes first, the peptide text is derived from it. Bridges are numbered along the chain shown (N, C = ends). [ ]: non-standard residue; d: D form. The star is where a group is joined. Threoninol(2S,3R) = C[C@@H](O)[C@H](CO)N*
measurement-kind: IC50

[
  {
    "molecule": "N=C(Nc1ccccc1)Nc1ccccc1",
    "target-desc": "UniProt P41968",
    "IC50": "Not Active"
  },
  {
    "molecule": "C=CCN1CC[C@]23c4c5ccc(O)c4O[C@H]2C(=O)CC[C@@]3(O)[C@H]1C5 [NALOXONE]",
    "target-desc": "UniProt P41968",
    "IC50": "Not Active"
  },
  {
    "molecule": "NC(=O)NO [HYDROXYUREA]",
    "target-desc": "UniProt P41968",
    "IC50": "Not Active"
  },
  {
    "molecule": "C[C@]1(Cn2ccnn2)[C@H](C(=O)O)N2C(=O)C[C@H]2S1(=O)=O [TAZOBACTAM]",
    "target-desc": "UniProt P41968",
    "IC50": "Not Active"
  },
  {
    "molecule": "CCN1CC(CCN2CCOCC2)C(c2ccccc2)(c2ccccc2)C1=O (stereo not given) [DOXAPRAM]",
    "target-desc": "UniProt P41968",
    "IC50": "Not Active"
  },
  {
    "molecule": "COP(=O)(OC)OC=C(Cl)Cl [DICHLORVOS]",
    "target-desc": "UniProt P41968",
    "IC50": "Not Active"
  },
  {
    "molecule": "CC(=O)OCC(=O)[C@@]1(O)CC[C@H]2[C@@H]3CCC4=CC(=O)CC[C@]4(C)[C@H]3C(=O)C[C@@]21C [CORTISONE ACETATE]",
    "target-desc": "UniProt P41968",
    "IC50": "Not Active"
  },
  {
    "molecule": "CC(C)c1nc(CN(C)C(=O)N[C@H](C(=O)N[C@@H](Cc2ccccc2)C[C@H](O)[C@H](Cc2ccccc2)NC(=O)OCc2cncs2)C(C)C)cs1 [RITONAVIR]",
    "target-desc": "UniProt P41968",
    "IC50": "Not Active"
  }
]

For the molecule C[C@H]1O[C@@H](O[C@H]2[C@@H](O)C[C@H](O[C@H]3[C@@H](O)C[C@H](O[C@H]4CC[C@@]5(C)[C@H](CC[C@@H]6[C@@H]5CC[C@]5(C)[C@@H](C7=CC(=O)OC7)CC[C@]65O)C4)O[C@@H]3C)O[C@@H]2C)C[C@H](O)[C@@H]1O [DIGITOXIN] , report IC50.
Not Active

For the molecule CC1(C)O[C@@H]2C[C@H]3[C@@H]4C[C@H](F)C5=CC(=O)C=C[C@]5(C)[C@@]4(F)[C@@H](O)C[C@]3(C)[C@]2(C(=O)CO)O1 [FLUOCINOLONE ACETONIDE] , report IC50.
Not Active

For the molecule CNC(=C[N+](=O)[O-])NCCSCc1ccc(CN(C)C)o1 [RANITIDINE] , report IC50.
Not Active

For the molecule C[C@@H](O)[C@H](CO)NC(=O)[C@@H]1CSSC[C@H](NC(=O)[C@H](N)Cc2ccccc2)C(=O)N[C@@H](Cc2ccccc2)C(=O)N[C@H](Cc2c[nH]c3ccccc23)C(=O)N[C@@H](CCCCN)C(=O)N[C@@H]([C@@H](C)O)C(=O)N1 (H-[dF]CF[dW]KTC-{Threoninol(2S,3R)}; disulfide 2-7) , report IC50.
Not Active

For the molecule CC1(C)O[C@@H]2C[C@H]3[C@@H]4C[C@H](F)C5=CC(=O)CC[C@]5(C)[C@H]4[C@@H](O)C[C@]3(C)[C@]2(C(=O)CO)O1 [FLURANDRENOLIDE] , report IC50.
Not Active

For the molecule Cn1c(=O)c2c(ncn2CC2OCCO2)n(C)c1=O [DOXOFYLLINE] , report IC50.
Not Active

For the molecule Cc1ncc([N+](=O)[O-])n1CCO [METRONIDAZOLE] , report IC50.
Not Active

For the molecule O=C1CCC(N2C(=O)c3ccccc3C2=O)C(=O)N1 (stereo not given) [THALIDOMIDE] , report IC50.
Not Active

For the molecule CCCC(=O)Nc1ccc(OCC(O)CNC(C)C)c(C(C)=O)c1 (stereo not given) [ACEBUTOLOL] , report IC50.
Not Active

For the molecule Nc1ccn([C@@H]2CS[C@H](CO)O2)c(=O)n1 [LAMIVUDINE] , report IC50.
Not Active

For the molecule CCCN(CCC)C(=O)C(CCC(=O)O)NC(=O)c1ccccc1 (stereo not given) [PROGLUMIDE] , report IC50.
Not Active

For the molecule CC/C(=C(/CC)c1ccc(O)cc1)c1ccc(O)cc1 [DIETHYLSTILBESTROL] , report IC50.
Not Active
